Experimental Endpoint: melting point

Record excerpt, results attached:
Cc1cc(C(=O)CCl)c(C)cc1Br	79 to 81 °C
CCC1(c2ccccc2)NC(=O)NC1=O (stereo not given)	203 to 205 °C

Could you tell me melting point for each of these compounds? They are listed below.
1. CCCc1ccc(N2CC(C(=O)O)CC2=O)cc1 (stereo not given)
2. NC(=O)CS(=O)(=O)c1ccc(C(=O)O)cc1
3. CN(C)c1ccc(/C=C/C(=O)c2ccc([N+](=O)[O-])cc2)cc1

["136 to 138 °C", "255 to 257 °C", "213 to 215 °C"]

---

I'd appreciate it if you could supply melting point values for the items below.

Parameters: items (list). Returns: melting point for each item.
1. CC(=O)c1sc(-c2ccccc2Br)nc1C
2. O=C(O)c1ccccc1NCc1ccccc1Cl

["124 to 126 °C", "183 to 185 °C"]
